Tested on: Epidermal growth factor receptor (Homo sapiens), P00533 [L858R,T790M]
Sequence (P00533 whole entry T790M/L858R, looked up): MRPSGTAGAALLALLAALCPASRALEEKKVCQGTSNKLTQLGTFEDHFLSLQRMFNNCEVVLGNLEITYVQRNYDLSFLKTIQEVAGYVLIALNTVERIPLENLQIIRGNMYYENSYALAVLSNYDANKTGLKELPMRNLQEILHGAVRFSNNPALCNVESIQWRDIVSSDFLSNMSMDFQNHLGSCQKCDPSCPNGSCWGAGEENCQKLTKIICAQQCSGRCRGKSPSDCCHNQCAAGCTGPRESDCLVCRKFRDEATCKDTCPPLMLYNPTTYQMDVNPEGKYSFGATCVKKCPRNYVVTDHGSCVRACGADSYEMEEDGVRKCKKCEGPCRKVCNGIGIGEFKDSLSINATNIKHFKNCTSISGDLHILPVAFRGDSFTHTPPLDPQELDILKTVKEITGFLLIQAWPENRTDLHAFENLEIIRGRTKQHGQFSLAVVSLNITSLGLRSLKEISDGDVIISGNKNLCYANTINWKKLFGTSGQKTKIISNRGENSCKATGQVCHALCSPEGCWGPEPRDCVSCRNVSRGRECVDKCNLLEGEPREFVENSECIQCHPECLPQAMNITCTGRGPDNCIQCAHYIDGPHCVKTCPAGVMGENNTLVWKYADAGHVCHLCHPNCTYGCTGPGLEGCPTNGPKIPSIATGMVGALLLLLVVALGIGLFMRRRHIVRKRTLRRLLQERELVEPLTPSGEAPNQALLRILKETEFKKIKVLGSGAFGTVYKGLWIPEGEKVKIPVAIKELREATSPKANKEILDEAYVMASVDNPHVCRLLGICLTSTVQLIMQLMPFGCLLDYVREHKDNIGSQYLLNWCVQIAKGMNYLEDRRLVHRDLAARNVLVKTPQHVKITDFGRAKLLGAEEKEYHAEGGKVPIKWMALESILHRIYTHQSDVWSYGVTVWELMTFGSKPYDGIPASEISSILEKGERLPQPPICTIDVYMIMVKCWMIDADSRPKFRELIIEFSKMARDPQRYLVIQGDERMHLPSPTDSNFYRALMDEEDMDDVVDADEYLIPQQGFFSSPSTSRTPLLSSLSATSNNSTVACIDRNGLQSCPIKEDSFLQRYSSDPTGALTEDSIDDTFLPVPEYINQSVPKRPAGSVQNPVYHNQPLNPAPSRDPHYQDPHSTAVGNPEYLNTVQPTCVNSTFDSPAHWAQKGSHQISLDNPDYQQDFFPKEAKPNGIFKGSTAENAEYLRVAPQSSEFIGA
testConditions: at 1 µM
reportedEndpoint: inhibition
Note to self: number, then unit, no commentary.

>>> measured("Cc1cccc2c1NC(=O)/C2=N\\Nc1ccc(S(N)(=O)=O)cc1")
"1.46%"
>>> measured("Cc1ccc(O)cc1Nc1ccnc2cc(-c3ccccn3)ccc12")
"30.4%"
>>> measured("CNC(=O)c1cccc(C#Cc2cncnc2Nc2ccc(OCc3cccc(F)c3)c(Cl)c2)c1")
"1.65%"

q: Could you share which inhibition value was measured for `O=S(=O)(CCNCc1ccc(-c2ccc3ncnc(Nc4ccc(OCc5cccc(F)c5)c(Cl)c4)c3c2)o1)c1ccccc1` ?
a: 1.97%

q: Could you share which inhibition value was measured for `COc1ccc2[nH]c3c4[nH]c5ccc(OC)cc5c4c4c(c3c2c1)C(=O)NC4=O` ?
a: 53.1%

---

subjectOfTest: Proto-oncogene tyrosine-protein kinase receptor Ret (Homo sapiens) (UniProt P07949)
Sequence (P07949 whole entry): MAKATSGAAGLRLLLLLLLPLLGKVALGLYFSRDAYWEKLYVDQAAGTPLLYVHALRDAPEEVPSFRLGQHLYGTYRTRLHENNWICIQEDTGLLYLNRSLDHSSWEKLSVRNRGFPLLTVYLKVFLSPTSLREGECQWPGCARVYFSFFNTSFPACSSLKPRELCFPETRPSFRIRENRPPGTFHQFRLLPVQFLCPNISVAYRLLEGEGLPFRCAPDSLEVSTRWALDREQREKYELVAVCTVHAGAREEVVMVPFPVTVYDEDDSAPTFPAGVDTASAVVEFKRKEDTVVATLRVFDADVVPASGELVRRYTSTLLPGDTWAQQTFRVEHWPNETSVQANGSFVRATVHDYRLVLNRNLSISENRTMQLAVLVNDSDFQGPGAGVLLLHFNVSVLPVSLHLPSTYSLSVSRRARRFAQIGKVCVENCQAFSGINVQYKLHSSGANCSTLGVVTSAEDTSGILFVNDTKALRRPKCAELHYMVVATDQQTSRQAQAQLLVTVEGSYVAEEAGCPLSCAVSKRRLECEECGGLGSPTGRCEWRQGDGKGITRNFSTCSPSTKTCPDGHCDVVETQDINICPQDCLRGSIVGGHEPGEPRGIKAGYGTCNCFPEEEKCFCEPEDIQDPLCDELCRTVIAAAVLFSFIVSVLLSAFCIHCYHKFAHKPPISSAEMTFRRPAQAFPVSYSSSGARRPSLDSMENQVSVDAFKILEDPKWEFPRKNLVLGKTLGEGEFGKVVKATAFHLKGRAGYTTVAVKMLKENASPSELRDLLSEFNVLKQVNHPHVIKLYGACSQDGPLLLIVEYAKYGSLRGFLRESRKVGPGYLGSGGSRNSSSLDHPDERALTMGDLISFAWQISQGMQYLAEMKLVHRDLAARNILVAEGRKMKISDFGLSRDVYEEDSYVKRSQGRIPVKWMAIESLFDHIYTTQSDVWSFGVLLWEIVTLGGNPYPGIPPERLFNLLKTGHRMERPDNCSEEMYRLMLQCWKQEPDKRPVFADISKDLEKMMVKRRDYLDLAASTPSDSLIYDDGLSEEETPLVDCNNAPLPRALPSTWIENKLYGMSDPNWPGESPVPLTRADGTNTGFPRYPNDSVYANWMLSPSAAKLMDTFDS
testConditions: at 1 µM
Lab note: compare inhibition against 5%. Equal or greater, write Y. Smaller, write N.

>>> assignedlabel("COc1cc2ncn(-c3cc(OCc4ccccc4C(F)(F)F)c(C(=O)N(C)C)s3)c2cc1OC")
"Y"
>>> assignedlabel("COC(=O)Nc1nc2ccc(Oc3ccc(NC(=O)Nc4cccc(Cl)c4)cc3)cc2[nH]1")
"Y"
>>> assignedlabel("CCn1cc(-c2ccnc3[nH]ccc23)c(-c2cccc(NC(=O)Nc3ccc(OCc4ccccc4)cc3)c2)n1")
"N"
>>> assignedlabel("COc1ccc2c(-c3ccnc(Nc4cccc(OC(F)(F)F)c4)n3)cnn2n1")
"Y"

Now let's try a different one.
q: Does the reported inhibition for `CNC(=O)c1cc(-c2ccc(F)cc2)cc(-c2ccc(S(=O)(=O)N3CCCC3)cc2)c1N` fall at or above the 5% mark?
a: N

---

# Lookup of reported inhibition keyed by entry
subjectOfTest: Tyrosine-protein kinase Srms (Homo sapiens)
testConditions: at 1 µM
Description: GSK_PKIS: SRMS mean inhibition at 1 uM [Nanosyn]
Field format: number, assumed %, no unit text.

>>> measured("COc1ccc2c(-c3ccnc(Nc4cccc(OC(F)(F)F)c4)n3)cnn2n1")
1.58

q: Could you share which inhibition value was measured for `COC(=O)Nc1nc2ccc(S(=O)(=O)c3ccc(NC(=O)Nc4cc(C(F)(F)F)ccc4F)cc3)cc2[nH]1` ?
a: -3.26

q: Could you share which inhibition value was measured for `CC(=O)Nc1cccc(C#Cc2cncnc2Nc2ccc(OCc3cccc(F)c3)c(Cl)c2)c1` ?
a: 0.23

q: Could you share which inhibition value was measured for `COC(=O)c1sc(-n2cnc3cc(OC)c(OC)cc32)cc1OCc1ccccc1C(F)(F)F` ?
a: -3.45

q: Could you share which inhibition value was measured for `NS(=O)(=O)c1ccc(Nc2ncc(-c3ccccc3)o2)cc1` ?
a: 0.22

q: Could you share which inhibition value was measured for `CNC(=O)c1cc(-c2ccc(F)cc2)cc(-c2ccc(S(=O)(=O)N3CCCC3)cc2)c1N` ?
a: -2.91

q: Could you share which inhibition value was measured for `O=S(=O)(CCNCc1ccc(-c2ccc3ncnc(Nc4ccc(OCc5cccc(F)c5)c(Cl)c4)c3c2)o1)c1ccccc1` ?
a: -3.16

q: Could you share which inhibition value was measured for `CCn1c(-c2nonc2N)nc2c(C#CC(C)(C)O)nc(OC[C@H](N)c3ccccc3)cc21` ?
a: 1.99

q: Could you share which inhibition value was measured for `CNC(=O)c1cncc(/C=C/c2ccccc2Cl)c1` ?
a: 3.3

q: Could you share which inhibition value was measured for `COc1cc(N2CCN(C(C)C)CC2)ccc1Nc1nc(Nc2ccc(F)cc2C(N)=O)c2cc[nH]c2n1` ?
a: 7.98

q: Could you share which inhibition value was measured for `c1ccc(-c2nc3n(c2-c2ccc4c(c2)OCO4)CCC3)nc1` ?
a: -1.55

---

subjectOfTest: Mast/stem cell growth factor receptor Kit (Homo sapiens)
testConditions: at 1 µM
reportedEndpoint: inhibition (%)
Field format: number, assumed %, no unit text.

Reference set (5 entries):
>>> measured("CNC(=O)c1cc(-c2ccc(F)cc2)cc(-c2ccc(S(=O)(=O)N3CCCC3)cc2)c1N")
3.53
>>> measured("COc1cc(N2CCN(C(C)C)CC2)ccc1Nc1nc(Nc2ccc(F)cc2C(N)=O)c2cc[nH]c2n1")
4.94
>>> measured("COc1ccc(-c2oc3ncnc(N)c3c2-c2ccc(NC(=O)Nc3cc(C(F)(F)F)ccc3F)cc2)cc1")
96
>>> measured("Clc1ccc(-c2nn3ncccc3c2-c2ccnc(Nc3ccccc3)n2)cc1")
66.9
>>> measured("COc1ccc(-c2cc(-c3c[nH]nc3-c3ccccn3)ccn2)cc1")
9.66

q: What reported inhibition corresponds to `CN1CCC(n2cnc(-c3ccc(F)cc3)c2-c2ccnc(N)n2)CC1` on Mast/stem cell growth factor receptor Kit (Homo sapiens)?
a: 9.51

---

subjectOfTest: Phosphorylase b kinase gamma catalytic chain, skeletal muscle/heart isoform (Homo sapiens) (UniProt Q16816)
Sequence (Q16816 whole entry, looked up, canonical isoform): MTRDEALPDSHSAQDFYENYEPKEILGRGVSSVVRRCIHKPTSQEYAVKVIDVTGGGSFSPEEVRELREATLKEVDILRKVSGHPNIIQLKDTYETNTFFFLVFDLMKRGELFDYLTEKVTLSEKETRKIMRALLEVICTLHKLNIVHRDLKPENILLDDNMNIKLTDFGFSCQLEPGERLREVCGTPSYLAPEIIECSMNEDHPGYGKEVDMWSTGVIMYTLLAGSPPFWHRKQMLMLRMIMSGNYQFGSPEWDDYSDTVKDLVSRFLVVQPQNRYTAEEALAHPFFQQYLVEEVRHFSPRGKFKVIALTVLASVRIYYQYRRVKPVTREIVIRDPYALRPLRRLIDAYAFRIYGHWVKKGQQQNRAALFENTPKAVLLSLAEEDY
testConditions: at 1 µM
# Lookup of reported inhibition keyed by entry
Field format: number, assumed %, no unit text.

>>> measured("COc1cc(/C=N/Nc2ncnc3[nH]ncc23)ccc1O")
16.6
>>> measured("COc1ccc2[nH]c3c4[nH]c5ccc(OC)cc5c4c4c(c3c2c1)C(=O)NC4=O")
73.3
>>> measured("CCn1cc(-c2ccnc3[nH]ccc23)c(-c2cccc(NC(=O)Nc3ccc(OCc4ccccc4)cc3)c2)n1")
4.8

q: Could you share which inhibition value was measured for `COc1cccc(-n2ncc3c(N/N=C/c4ccc(F)cc4)ncnc32)c1` ?
a: 5.43

---

# Lookup of reported inhibition keyed by entry
subjectOfTest: Serine/threonine-protein kinase SIK2 (Homo sapiens)
testConditions: at 0.1 µM
Description: GSK_PKIS: SNF1LK2 (QIK) mean inhibition at 0.1 uM [Nanosyn]
Field format: number, assumed %, no unit text.

Reference set (3 entries):
>>> measured("Fc1ccc(-c2cc(-c3c[nH]nc3-c3ccccn3)ccn2)cc1")
7.67
>>> measured("N#Cc1c(NC(=O)CN2CCOCC2)sc2c1CCCC2")
5.2
>>> measured("CCn1c(-c2nonc2N)nc2c(C#CC(C)(C)O)nc(OC[C@H](N)c3ccccc3)cc21")
1.31

q: Could you share which inhibition value was measured for `COc1cc(/C=N/Nc2ncnc3[nH]ncc23)ccc1O` ?
a: 8.34

q: Could you share which inhibition value was measured for `CCNC(=O)O[C@H]1CN[C@H](C#Cc2cc3ncnc(Nc4ccc(OCc5cccc(F)c5)c(Cl)c4)c3s2)C1` ?
a: 4.37

q: Could you share which inhibition value was measured for `CN1CCC(n2cnc(-c3ccc(F)cc3)c2-c2ccnc(Nc3ccccc3)n2)CC1` ?
a: 7.17

---

Test system: Platelet-derived growth factor receptor alpha (Homo sapiens), P16234 [V561D]
Sequence (P16234 whole entry V561D): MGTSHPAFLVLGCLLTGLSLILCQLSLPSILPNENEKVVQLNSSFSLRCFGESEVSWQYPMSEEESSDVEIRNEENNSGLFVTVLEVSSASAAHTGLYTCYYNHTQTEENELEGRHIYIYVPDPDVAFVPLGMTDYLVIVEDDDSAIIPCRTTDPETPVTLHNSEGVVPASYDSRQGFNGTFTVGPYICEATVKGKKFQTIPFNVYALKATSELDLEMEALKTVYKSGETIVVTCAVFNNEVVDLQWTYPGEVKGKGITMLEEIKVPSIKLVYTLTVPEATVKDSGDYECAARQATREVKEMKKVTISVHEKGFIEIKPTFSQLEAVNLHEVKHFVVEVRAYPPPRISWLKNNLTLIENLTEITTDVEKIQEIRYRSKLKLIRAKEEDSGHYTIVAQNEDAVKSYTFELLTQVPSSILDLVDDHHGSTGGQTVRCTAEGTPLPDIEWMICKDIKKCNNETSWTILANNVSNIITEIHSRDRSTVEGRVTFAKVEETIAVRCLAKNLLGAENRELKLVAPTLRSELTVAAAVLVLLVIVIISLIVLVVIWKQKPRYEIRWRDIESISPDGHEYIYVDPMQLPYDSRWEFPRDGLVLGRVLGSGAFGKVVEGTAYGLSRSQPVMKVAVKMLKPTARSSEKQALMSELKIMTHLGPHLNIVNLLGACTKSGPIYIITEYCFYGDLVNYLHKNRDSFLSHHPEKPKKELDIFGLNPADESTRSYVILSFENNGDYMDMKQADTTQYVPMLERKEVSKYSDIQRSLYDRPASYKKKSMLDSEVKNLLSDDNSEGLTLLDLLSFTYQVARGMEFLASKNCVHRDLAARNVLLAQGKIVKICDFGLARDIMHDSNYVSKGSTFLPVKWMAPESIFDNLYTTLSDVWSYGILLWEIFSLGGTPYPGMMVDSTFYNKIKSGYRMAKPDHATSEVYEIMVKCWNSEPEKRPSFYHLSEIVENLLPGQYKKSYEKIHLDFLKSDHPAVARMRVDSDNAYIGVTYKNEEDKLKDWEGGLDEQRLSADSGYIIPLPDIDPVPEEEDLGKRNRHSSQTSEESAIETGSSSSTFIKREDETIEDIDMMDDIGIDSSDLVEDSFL
testConditions: at 0.1 µM
# Lookup of reported inhibition keyed by entry
Field format: number, assumed %, no unit text.

Reference set (5 entries):
>>> measured("Nc1nc(-c2ccc(F)cc2)c(-c2ccc3ncccc3n2)s1")
13.2
>>> measured("O=C(O[C@H]1CN[C@H](C#Cc2cc3ncnc(Nc4ccc(Cc5ccccc5)cc4)c3s2)C1)N1CCOCC1")
-0.15
>>> measured("Cc1cccc(Nc2ncc(-c3ccccc3)o2)c1")
22.5
>>> measured("CCOc1ccc2c(-c3ccnc(Nc4cccc(C(F)(F)F)c4)n3)cnn2n1")
2.96
>>> measured("CN1CCC(n2cnc(-c3ccc(F)cc3)c2-c2ccnc(N)n2)CC1")
4.45

q: Could you share which inhibition value was measured for `COc1cc(Nc2nccc(Nc3ccc4c(C)n[nH]c4c3)n2)cc(OC)c1OC` ?
a: 71.4

q: Could you share which inhibition value was measured for `CN(C)CCOc1ccc(-c2nc(-c3ccncc3)c(-c3ccc4c(c3)CC/C4=N\O)[nH]2)cc1` ?
a: 2.97

q: Could you share which inhibition value was measured for `NC(=O)c1sc(-n2cnc3ccc(C(F)(F)F)cc32)cc1OCc1ccccc1Br` ?
a: 3.53

q: Could you share which inhibition value was measured for `N#Cc1c(NC(=O)c2ccc(F)cc2)sc2c1CCCC2` ?
a: 0.92

q: Could you share which inhibition value was measured for `CCNC(=O)O[C@H]1CN[C@H](C#Cc2cc3ncnc(Nc4ccc(OCc5cccc(F)c5)c(Cl)c4)c3s2)C1` ?
a: 1.45

q: Could you share which inhibition value was measured for `FC(F)(F)c1cccc(-c2nn3ncccc3c2-c2ccnc(Nc3ccc4c(c3)OCCO4)n2)c1` ?
a: 1.96

q: Could you share which inhibition value was measured for `NS(=O)(=O)c1ccc(N/N=C2\C(=O)Nc3ccc4ncccc4c32)cc1` ?
a: 54.5

q: Could you share which inhibition value was measured for CC1=C(C(=O)Nc2cc(Cl)c3[nH]ncc3c2)C(c2ccc(C(F)(F)F)cc2)CC(=O)N1 (centres undefined) ?
a: 4.08

q: Could you share which inhibition value was measured for `CNC(=O)c1cc(-c2ccc(F)cc2)cc(-c2ccc(S(=O)(=O)N3CCCC3)cc2)c1N` ?
a: 3.32

q: Could you share which inhibition value was measured for `CC(=O)Nc1cccc(C#Cc2cncnc2Nc2ccc(OCc3cccc(F)c3)c(Cl)c2)c1` ?
a: -4.05
